- Tested on: MS2 coat protein
- Assay method text: apparent KD of MS2 coat protein; higher = weaker reporter binding
- Study conditions: Eterna round: R107; input ligand: arginine 13.2 mM
Experimental endpoint: apparent KD of MS2 coat protein (nM)
Could you give me the number in nM? Just the number is fine.

Look over these answered cases.
>  <Biosequence>
AGAAUAACACAUGAGGAUCACCCAUGUGAUACCAGCUAGGAAACUAGCCCUUGGCAGCACAUAAUCCUCAUGAGCUGCCAUAAUA [(M1)-(M2)-(T1)-(T2)-(M)'-(T)'_Design2_2/19/17]

>  <Study system>
MS2 coat protein

>  <Quantity unit>
nM

>  <apparent KD of MS2 coat protein>
12

$$$$
>  <Biosequence>
ACAUGAGGAUCACCCAUGUGAAGCAGGGUACGAGGACCGGUACGGCCGCCACUCGAGGAUUAUACCGAGUGAAUGGCAACGAUGU [whbob_Ex_trypto A_2s18]

>  <Study system>
MS2 coat protein

>  <Quantity unit>
nM

>  <apparent KD of MS2 coat protein>
13.2

$$$$
>  <Biosequence>
AGCCCAUUACAUGAGGAUCACCCAUGUGAUACCAGUCAGGAAACUGACCCUUGGCAGCGCAUGAGGAUCACCCAUGCGCUGGGCA [Omei Theo A Exc A v6]

>  <Study system>
MS2 coat protein

>  <Quantity unit>
nM

>  <apparent KD of MS2 coat protein>
10

$$$$
>  <Biosequence>
UCGUGUAUAUCGGAUACCAGUGAAAACGAUACAUGAGGAUCACCCAUGUGAGUUGAUGUACACCCUUGGCAGCUGUAUAUAUCUA [fokullin]

>  <Study system>
MS2 coat protein

>  <Quantity unit>
nM

>  <apparent KD of MS2 coat protein>
16.1

$$$$

// moving on: another record for apparent KD of MS2 coat protein
State recorded apparent KD of MS2 coat protein with MS2 coat protein, entry UCGUGUAUAUCGGAUACCAGUGAAAUCGAUACAUGAGGAUCACCCAUGUGAGAGGAUGUACACCCUUGGCAGCUGUAUAUAUCUG [ll,lmullin] , no comment.
18

###

- Tested on: MS2 coat protein
- Assay method text: apparent KD of MS2 coat protein; designed switch direction (-1 OFF switch, 1 ON switch): 1; higher = weaker reporter binding
- Study conditions: Eterna round: R95; input ligand: microRNA oligo, concentration not stated
Measured apparent KD of MS2 coat protein by item

Recorded apparent KD of MS2 coat protein, per entry:
>  <Biosequence>
CUAACAACAAGUUGCAGUGUUCGUCUUUAACAUGAGGAUCACCCAUGUAAUAGCCCGGUAGAAGCGCUCGGGCCACC [Anaesrain] (puzzle: Sensor for hsa-mir-208a)

>  <Study system>
MS2 coat protein

>  <apparent KD of MS2 coat protein>
38.1 nM

$$$$
>  <Biosequence>
UCUUGGUUUUUGCUCGUUUUUUGUGUUGAACAUGAGGAUCACCCAUGUAUUGUACAAUCCAAUUUAAUAAUGGUCCA [Mod of one of JR's submissions 3] (puzzle: Sensor for hsa-mir-208a)

>  <Study system>
MS2 coat protein

>  <apparent KD of MS2 coat protein>
42.2 nM

$$$$
>  <Biosequence>
CGUAGGUAGCUGGAGGAUAUCCGAGUGGUAACAUGAGGAUCACCCAUGUGAUGUGAGGAACAUGAGGAGAAGGCUAGCUGCCUGC [JL-ss2-3.12 JL mod] (puzzle: Same State 2)

>  <Study system>
MS2 coat protein

>  <apparent KD of MS2 coat protein>
37.5 nM

$$$$

Attention now shifts to the item below.
Consider the sequence AUUAAACAUGAGGAUCACCCAUGUCAACAAAGUCGAGGAUAUGGGCAAAUAAAAUAAGAACCAGAAGGCGUAUAAU [salish99_ss1_r3_077] (puzzle: Same State 1) and give its recorded apparent KD of MS2 coat protein.
363 nM
